# protocol_notes: NCI Yeast Anticancer Drug Screen. Data for the rad50EPP+ strain (AID 151);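 also: 0% = growth of vehicle-treated control cultures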
# condition_parameters: S. cerevisiae rad50 mutant strain, at 1.2 µM, stronger effect = higher value
The panel holds about 79,000 compounds, 15% with a hit somewhere; the sample as a whole holds those more often.
Entries annotated with measured growth inhibition
Give just the number in %; leave the unit off.

Please review the entries below; each comes with its answer.
molecule | growth inhibition (%)
Cc1c2cc[n+](Cc3ccc(I)cc3)cc2c(C)c2c1[nH]c1ccccc12 | 30
O=C1Nc2ccc(Br)cc2C1=Nc1ccc2c(c1)OCO2 | -34
Cc1cc(C(C)(C)C)c(OCCCN2CCOCC2)c(C(C)(C)C)c1 | 0
CCCCCCOC(=O)NCCOC(=O)Nc1ccccc1 | 3
CCO/C(C)=C(/C#N)C(N)=S | -3

Task: Dear colleague, please send me the reported growth inhibition for OCc1ccccc1Cc1ccccc1 when you can.
Output: 2

Task: Dear colleague, please send me the reported growth inhibition for O=C(O)c1cc2ccccc2c2c1C(=O)c1ccccc1-2 when you can.
Output: -23

Task: Dear colleague, please send me the reported growth inhibition for COc1ccc(/C=C/C(=O)c2ccccc2)cc1OC when you can.
Output: 16

Task: Dear colleague, please send me the reported growth inhibition for Cc1cc2c3ccccc3c3ccccc3c2nn1 when you can.
Output: 13

Task: Dear colleague, please send me the reported growth inhibition for CNC(=O)OCc1c(COC(=O)NC)c(-c2ccc(Cl)cc2)n2c1CCC2 when you can.
Output: -21

Task: Dear colleague, please send me the reported growth inhibition for O=C(CSC(=S)N1CCCCC1)Nc1nc2c(s1)CCCC2 when you can.
Output: 21

Task: Dear colleague, please send me the reported growth inhibition for CN(C)/C=C/c1nnc([N+](=O)[O-])s1 when you can.
Output: 1

Task: Dear colleague, please send me the reported growth inhibition for CC(C)OC(=O)Nc1ccc2nc(-c3cscn3)[nH]c2c1 when you can.
Output: 9

Task: Dear colleague, please send me the reported growth inhibition for Nc1cc(N)c(N=Nc2cccc3c(S(=O)(=O)O)cccc23)cc1N=Nc1cc([N+](=O)[O-])ccc1O when you can.
Output: -11

====

# protocol_notes: NCI Yeast Anticancer Drug Screen. Data for the sgs1 mgt1 strain (AID 161);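 also: 0% = growth of cultures given vehicle only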
# condition_parameters: S. cerevisiae sgs1 mgt1 strain, at 50.0 µM, stronger effect = higher value
Compounds without any hit were thinned out: in the full panel of roughly 79,000, 15% have a hit.
Threshold rule: growth inhibition greater than or equal to 70% is yes; below that, no.

Record excerpt, results attached:
molecule | answer_label
O=C(Oc1ccc2c(c1)CN(Cc1ccccc1)CO2)c1ccccc1 | yes
CCCC(=O)Oc1ccc(/C=N/NC(N)=S)nc1 | no
C/C(=N\Nc1ccc([N+](=O)[O-])cc1[N+](=O)[O-])c1sc(-n2nc(-c3ccccc3)cc2-c2ccccc2)nc1C | yes
O=[N+]([O-])c1ccc2c(c1)/C(=N/N=C1c3ccccc3Cc3ccccc31)c1cc([N+](=O)[O-])cc([N+](=O)[O-])c1-2 | yes
O=C(NNc1ccccc1)c1ccc(Cl)c(Cl)c1 | no
c1ccc(Cc2cc(-c3ccccc3)n[nH]2)cc1 | yes

Task: Record Cc1c2ccnc(C(=O)NCCN(C)C)c2cc2c3cc(O)ccc3n(C)c12 ; criterion: growth inhibition no lower than 70%. Met?
Output: no

Task: Record CCOc1ccccc1N=Cc1c2ccccc2cc2ccccc12 ; criterion: growth inhibition no lower than 70%. Met?
Output: yes

Task: Record CN(CCN(C)Cc1ccccc1)Cc1ccccc1 ; criterion: growth inhibition no lower than 70%. Met?
Output: no
